Test details: chemical genetic growth profiling, strain panel (AID 1159580);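 also: tested at 20 µM; growth read once vehicle control cultures reached saturation at 30 °C; lower values mean less growth of the strain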
Conditions used: S. cerevisiae deletion strains, growth OD, locus YJL187C, strain SWE1
In all, about 5,500 compounds went through this assay and about 2,000 (36%) were called active. About 18% were inconclusive and are not listed. Rule as the data show it: active = normalized growth mostly below about 0.91 (no sharp cut-off); inconclusive = no clear call, values can overlap the other calls; inactive = mostly above about 0.92. Some of the results follow.
Hi! Could you answer with just one of these? True for active, False for inactive

Please state the recorded outcome for this molecule: CC(=O)Oc1cc(OC(C)=O)c2c(c1)O[C@H](c1ccc(OC(C)=O)c(OC(C)=O)c1)[C@H](OC(C)=O)C2 False

Please state the recorded outcome for this molecule: O=C(/C=C/c1ccc(O)c(O)c1)OCCc1ccccc1 True

Please state the recorded outcome for this molecule: COC(=O)c1ccc(Cl)cc1NS(=O)(=O)c1ccc(OC)c(OC)c1 False

Please state the recorded outcome for this molecule: COC(=O)C1=COC(OC2OC(CO)C(O)C(O)C2O)C2C(C)CC(=O)C12 (stereo not given) False

Please state the recorded outcome for this molecule: O=C(/C=C/c1ccc(O)c(O)c1)OC(Cc1ccc(O)c(O)c1)C(=O)O (stereo not given) False
